Assay: chemical genetic growth profiling, strain panel (AID 1159580);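 also: tested at 20 µM; growth read once vehicle control cultures reached saturation at 30 °C; 1 = growth at the plate median or of vehicle wells; lower values mean less growth of the strain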
Conditions: S. cerevisiae deletion strains, growth OD, locus YNL233W, strain BNI4, hits give low values
Out of some 5,500 compounds screened, about 2,000 (36%) were called active. Roughly 18% stayed inconclusive and do not appear here. The list shows a part of the results.
Entries and their measured normalized growth follow.
Enter a number only.

Example molecules with recorded normalized growth:
INSERT INTO results (molecule, recorded_result) VALUES
  ('C=CC(C1=CC(=O)C(OC)=CC1=O)c1ccccc1 (stereo unspecified)', 0.808),
  ('C=CC(C1=CC(=O)C=CC1=O)c1ccccc1 (stereo unspecified)', 0.815),
  ('C1CCN2C[C@@H]3C[C@H](CN4CCCC[C@@H]34)[C@H]2C1', 1.01),
  ('O[N+]1=CC=CCC1=S.On1ccccc1=S.[Zn]', 0.0571),
  ('OC[C@@H](O)[C@@H](O[C@@H]1O[C@H](CO)[C@@H](O)[C@H](O)[C@H]1O)[C@H](O)[C@@H](O)CO', 1.02);

### Prompt Data request, read-out normalized growth, for C=CC(C1=CC(=O)C(OC)=CC1=O)c1ccc(OC)cc1 (stereo unspecified)
### Response 0.862

* * *

Assay: chemical genetic growth profiling, strain panel (AID 1159580);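 also: tested at 20 µM; growth read once vehicle control cultures reached saturation at 30 °C; 1 = growth at the plate median or of vehicle wells; lower values mean less growth of the strain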
Conditions: S. cerevisiae deletion strains, growth OD, locus YHR013C, strain ard1
Among all 5,500 compounds or so, about 2,000 (36%) were called active. Not shown: some 18% with an inconclusive outcome. Rule as the data show it: active = normalized growth mostly below about 0.91 (no sharp cut-off); inconclusive = no clear call, values can overlap the other calls; inactive = mostly above about 0.92. This is one part of the list.
The reply should be one of these categories: active, inactive

Study these solved cases before continuing.
INSERT INTO assay_data (compound, qualitative_label) VALUES
  ('CCN(CC)CCOc1ccc2c(c1)C(=O)c1cc(OCCN(CC)CC)ccc1-2', 'inactive'),
  ('CN(C)CCOc1ccc(/C(=C(/CCCl)c2ccccc2)c2ccccc2)cc1', 'active'),
  ('CCN(CC)CCOc1ccc(/C(=C(\Cl)c2ccccc2)c2ccccc2)cc1', 'active');

### Prompt Identify the outcome logged in this assay for the compound shown: CN(C)CCOC(C)(c1ccccc1)c1ccccn1 (stereo unspecified)
### Response inactive

### Prompt Identify the outcome logged in this assay for the compound shown: C=CC(C1=CC(=O)C=CC1=O)c1ccccc1 (stereo unspecified)
### Response inactive

### Prompt Identify the outcome logged in this assay for the compound shown: COc1cc(C(=O)NCc2ccc(OCCN(C)C)cc2)cc(OC)c1OC
### Response inactive

* * *

Experiment: chemical genetic growth profiling, strain panel (AID 1159580);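 also: tested at 20 µM; growth read once vehicle control cultures reached saturation at 30 °C; 1 = growth at the plate median or of vehicle wells; lower values mean less growth of the strain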
Conditions: S. cerevisiae deletion strains, growth OD, locus YDL101C, strain DUN1, hits give low values
Screen size: about 5,500 compounds; about 2,000 (36%) were called active. About 18% were inconclusive and are not listed. Some of the results follow.
Entries and their measured normalized growth follow.
Enter a number only.

Example compounds with recorded normalized growth:
INSERT INTO results (compound, measurement_name, recorded_result) VALUES
  ('CCOC(=O)/C(=N/Nc1c(Cl)cccc1Cl)c1csc(N)n1', 'normalized growth', 0.986),
  ('CN/C(=C\[N+](=O)[O-])NCCSCc1ccc(CN(C)C)o1', 'normalized growth', 1.03);

### Prompt Data request, read-out normalized growth, for Cn1c(CSCCOc2ccccc2)nnc1SCc1ccc(Cl)cc1Cl
### Response 0.995

### Prompt Data request, read-out normalized growth, for C#CCOc1c(Cl)cccc1Cl
### Response 0.962

### Prompt Data request, read-out normalized growth, for O=C(NCCSCc1cccc(C(F)(F)F)c1)Nc1cccc(C(F)(F)F)c1
### Response 1.01

### Prompt Data request, read-out normalized growth, for Nc1ccc(S(=O)(=O)Nc2ccc(Cl)nn2)cc1
### Response 1.01

### Prompt Data request, read-out normalized growth, for COC(=O)Oc1ccccc1C(=O)O
### Response 1.02

### Prompt Data request, read-out normalized growth, for Nc1ccccc1SCC(=O)Nc1c(F)cccc1F
### Response 0.979

### Prompt Data request, read-out normalized growth, for C1CNCCN1
### Response 1.02

### Prompt Data request, read-out normalized growth, for O=C(CCCCCCCCCCCCC1CCCC1)Nc1ccc(S(=O)(=O)c2ccc(NC(=O)CCCCCCCCCCCCC3CCCC3)cc2)cc1
### Response 1.03

### Prompt Data request, read-out normalized growth, for O=C1C=CC2=C3c4cc(O)c(O)cc4C[C@@]3(O)COC2=C1
### Response 0.981

meta.source: PubChem BioAssay AID1159580
